Target: DYRK4 (human)
Experiment: radiometric filter-binding kinase assay, Kinase HotSpot
Conditions: compound 0.5 µM; ATP 10 µM
quantity name: residual activity (%)

- structure notation: "COc1ccc2c(c1)/C(=C/c1cnc[nH]1)C(O)=N2"
  system tested: "DYRK4 (human)"
  reported measurement: 98.5
- structure notation: "COc1ccc(C(=O)Nc2sc3c(c2C(N)=O)CCCC3)cc1OC"
  system tested: "DYRK4 (human)"
  reported measurement: 98.5
- structure notation: "Fc1ccc(-c2nc3n(c2-c2ccncc2)CCS3)cc1"
  system tested: "DYRK4 (human)"
  reported measurement: 106

---

Target: WNK2 (human)
Test: radiometric filter-binding kinase assay, Kinase HotSpot
Details: compound 0.5 µM; ATP 10 µM
Measured residual activity by item

- structure notation: "COc1cc2ncnc(Nc3ccc(Oc4ccccc4)cc3)c2cc1OC"
  residual activity, %: 88.1
- structure notation: "CN(C)S(=O)(=O)c1ccc2c(c1)/C(=C/c1cc3c([nH]1)CCCC3)C(=O)N2"
  residual activity, %: 101
- structure notation: "c1ccc2c(-c3ccncc3)c[nH]c2c1"
  residual activity, %: 96.9
- structure notation: "CS(=O)(=O)CCNCc1ccc(-c2ccc3ncnc(Nc4ccc(OCc5cccc(F)c5)c(Cl)c4)c3c2)o1"
  residual activity, %: 102
- structure notation: "Cc1cccc(-c2nc(C(C)(C)C)[nH]c2-c2ccc3c(c2)OCO3)n1"
  residual activity, %: 105

---

Biological target: SRPK2 (human) (UniProt P78362)
Sequence (P78362 whole entry, looked up): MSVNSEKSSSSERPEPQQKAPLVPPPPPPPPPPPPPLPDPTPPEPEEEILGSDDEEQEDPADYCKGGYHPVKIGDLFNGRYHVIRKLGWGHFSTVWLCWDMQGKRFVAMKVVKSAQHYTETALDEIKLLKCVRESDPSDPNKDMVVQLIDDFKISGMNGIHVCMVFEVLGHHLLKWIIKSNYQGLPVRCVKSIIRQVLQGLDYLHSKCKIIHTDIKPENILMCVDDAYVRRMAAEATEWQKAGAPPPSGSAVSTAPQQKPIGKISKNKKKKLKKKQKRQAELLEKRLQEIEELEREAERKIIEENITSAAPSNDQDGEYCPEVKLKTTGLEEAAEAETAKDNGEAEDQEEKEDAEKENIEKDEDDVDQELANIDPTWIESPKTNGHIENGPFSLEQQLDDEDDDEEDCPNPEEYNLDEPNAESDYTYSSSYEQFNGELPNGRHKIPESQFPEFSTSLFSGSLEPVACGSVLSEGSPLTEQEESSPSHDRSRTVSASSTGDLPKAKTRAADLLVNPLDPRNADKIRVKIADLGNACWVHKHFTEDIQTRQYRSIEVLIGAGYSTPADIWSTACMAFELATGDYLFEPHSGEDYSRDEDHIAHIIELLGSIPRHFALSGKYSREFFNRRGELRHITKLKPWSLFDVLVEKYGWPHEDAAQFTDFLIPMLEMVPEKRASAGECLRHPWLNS
Assay: radiometric filter-binding kinase assay, Kinase HotSpot
Settings: compound 0.5 µM; ATP 10 µM

- structure notation: "CC(C)(C)c1cc(C=C(C#N)C#N)cc(Br)c1O"
  scale unit: "%"
  residual activity: 109
- structure notation: "O=C1Nc2ccc(Br)cc2/C1=C\\c1cc2c([nH]1)CCCC2"
  scale unit: "%"
  residual activity: 90.6
- structure notation: "O=C1NC(=O)c2c1c1c3ccccc3[nH]c1n1cncc21"
  scale unit: "%"
  residual activity: 80.2
- structure notation: "COc1ccc(C(=O)Nc2sc3c(c2C(N)=O)CCCC3)cc1OC"
  scale unit: "%"
  residual activity: 97.6
- structure notation: "c1ccc2c(-c3ccncc3)c[nH]c2c1"
  scale unit: "%"
  residual activity: 103
- structure notation: "Cc1cncc2cccc(S(=O)(=O)N3CCCN(C(=O)CN)C[C@H]3C)c12"
  scale unit: "%"
  residual activity: 97.1
- structure notation: "CN(C)c1ccc(/C=C2\\C(=O)Nc3ccccc32)cc1"
  scale unit: "%"
  residual activity: 100
- structure notation: "CN(C)CCCn1cc(C2=C(c3c[nH]c4ccccc34)C(=O)NC2=O)c2ccccc21"
  scale unit: "%"
  residual activity: 94.4
- structure notation: "N#C/C(=C\\c1ccc(O)c(O)c1)C(=O)NCc1ccccc1"
  scale unit: "%"
  residual activity: 96.6
- structure notation: "Cc1nc(-c2ccccc2)c(-c2ccncc2)o1"
  scale unit: "%"
  residual activity: 92.3
- structure notation: "O=C1c2ccccc2-c2nc3nnnn3nc21"
  scale unit: "%"
  residual activity: 95.8
- structure notation: "COc1cc2ncnc(Nc3ccc(OCc4ccccc4)cc3)c2cc1OC"
  scale unit: "%"
  residual activity: 92.3
